Where do the numbers come from? From patent US20080219971A1.

Biological target: T1, Human CD100 (human, UniProt Q92854 22-734, limits assumed)
T1 construct: also called SEMA4D; Hu CD100
T1 sequence (looked up): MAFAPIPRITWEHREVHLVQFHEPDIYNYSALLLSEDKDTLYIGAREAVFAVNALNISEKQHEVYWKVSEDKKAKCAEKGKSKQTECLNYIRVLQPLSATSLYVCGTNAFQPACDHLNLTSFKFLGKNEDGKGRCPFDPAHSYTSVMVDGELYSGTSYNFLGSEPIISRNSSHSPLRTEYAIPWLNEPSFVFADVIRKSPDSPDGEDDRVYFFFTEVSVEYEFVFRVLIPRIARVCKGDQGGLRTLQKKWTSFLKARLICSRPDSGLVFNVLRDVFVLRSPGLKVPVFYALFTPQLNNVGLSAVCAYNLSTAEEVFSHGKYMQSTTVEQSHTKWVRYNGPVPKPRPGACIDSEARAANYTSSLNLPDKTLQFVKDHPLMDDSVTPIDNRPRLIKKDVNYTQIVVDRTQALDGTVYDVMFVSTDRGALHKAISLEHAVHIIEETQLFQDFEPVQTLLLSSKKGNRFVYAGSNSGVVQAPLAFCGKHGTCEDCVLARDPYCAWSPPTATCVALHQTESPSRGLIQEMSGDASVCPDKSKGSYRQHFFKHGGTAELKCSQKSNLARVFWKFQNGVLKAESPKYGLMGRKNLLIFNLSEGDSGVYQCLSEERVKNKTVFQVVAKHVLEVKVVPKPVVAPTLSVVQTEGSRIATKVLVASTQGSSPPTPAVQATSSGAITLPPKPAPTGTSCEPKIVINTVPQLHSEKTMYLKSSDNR
Assay: ELISA method of Friguet et al.; column head 'Affinity (nM) IC50 ELISA'; antigen not named
Measured quantity: Kd (pM)
Field format: number, assumed pM, no unit text.

Incoming: Recorded Kd for MAb 1807 (antibody, human IgG4, V domains shown, Humanized BD16, human IgG4; also called H1235/L284) VH: QVQLVQSGAEVKKPGSSVKVSCKASGYTFTDYYMDWVRQAPGQGLEWIGRVNPYHGGATYNQKFKGKATITVDKSTSTAYMELSSLRSEDTAVYYCAREENSYDGYYGMDYWGQGTLVTVSS VL: DIVMTQSPLSLPVSPGEPATINCKSSQSLFNSGNQKNYLAWYLQKPGQPPKLLIYGASTRESGVPDRFSGSGSGTDFTLTISSLQAEDVAVYYCQNDHTYPYTFGQGTKLEIK , please?
Outgoing: 120
